METHOD_SUMMARY: Therapeutic index, ratio of LD50 for dark toxicity against mouse Colon 26 cells to EC50 for phototoxicity against mouse Colon 26 cells at 1 Jcm'-2 of irradiation with 660 +/- 2 nm nm light
Type: cell-based
PROTOCOL_CONDITIONS: read-out: Ratio LD50/EC50
ENDPOINT_LABEL: selectivity ratio

The compound listed as CN(C)c1ccc2c(-c3ccccc3)c3ccc4cc(=[N+](C)C)ccc4c3[se]c2c1.F[P-](F)(F)(F)(F)F shows selectivity ratio equal to > 15

----------
METHOD_SUMMARY: Induction of singlet oxygen assessed as quantum yields for generation of singlet oxygen by luminescence spectroscopy
Format: physicochemical
Record form. Attribute: Singlet oxygen quantum yield. Fill in for each entry.
Numbers only.

# MOLECULE_SMILES, Singlet oxygen quantum yield
measured = [
    ("CN(C)c1ccc2c(-c3ccccc3)c3ccc4cc(=[N+](C)C)ccc4c3[se]c2c1.F[P-](F)(F)(F)(F)F", 0.65),
]

The compound listed as CN(C)c1ccc2c(-c3ccccc3)c3ccc4cc(=[N+](C)C)ccc4c3sc2c1.F[P-](F)(F)(F)(F)F shows Singlet oxygen quantum yield equal to 0.15
